- System: SF-268
- Assay Details: NCI tumour cell line growth inhibition, 48 h
The source made the active and inactive calls. Cut-off read from the data, not from the text of the source: active = GI50 up to about 1.1 µM and inactive = higher. Residues, ends and D or L forms follow the SMILES beside them. *: point of attachment. Boc = CC(C)(C)OC(=O)*
Lab note: assign the record to one of active, inactive

Input: Outcome? CCOC(=O)Cc1c(C)c2ccc(OC(C)=O)c(OC(C)=O)c2oc1=O
Output: inactive

Input: What outcome does the record of this test show for Cc1ccc(C2=NOC(=O)[C@@H]3CCCC[C@@H]23)cc1 ?
Output: inactive

Input: Answer briefly: the call reported for COc1ccc(/C=C2\CC3C4CC=C5C[C@@H](O)CC[C@]5(C)C4CC[C@]3(C)C2=O)cc1OC (stereo not given in full) in this assay.
Output: inactive

Input: How was COc1cc(/C=C\C(=O)O)ccc1OCc1ccccc1 classified in this test?
Output: inactive

Input: Write down the call the test reported for this compound. Item: O=C(CC1=NCCN1)c1ccccc1
Output: inactive

Input: In this assay, the call recorded for CCOc1ccccc1NC(=O)C1=C(C)NC(C)=C(C(=O)Nc2ccccc2OCC)C1c1cccc([N+](=O)[O-])c1 was what?
Output: inactive

Input: Per the records of this test, what outcome belongs to COC(=O)C1(OC(=O)Sc2ccccc2)CCN(C)CC1 ?
Output: inactive

Input: Hi team, can someone confirm the assay call for CC(NC(=O)C(NC(=O)OC(C)(C)C)C(C)C)C(=O)N1CCCC1C(=O)NCC(=O)NC(C(=O)NCC(=O)O)C(C)C (stereo not given) (Boc-VAPGVG-OH; configuration not given here) ?
Output: inactive

Input: Could you please tell me the result logged for COc1cc(-c2nc3cc(F)ccc3s2)ccc1O in this assay?
Output: inactive

Input: I'd appreciate the recorded outcome for N#CCCN(CCC#N)c1ccc(/C=C2\N=C(c3ccccc3)N(c3ccc(F)cc3)C2=O)cc1 from this test.
Output: inactive

Input: In this assay, the call recorded for N#CC1=C(Cl)NC(Cl)=C(C#N)C1c1ccc(Cl)cc1 was what?
Output: inactive

Input: For CC(=O)C1(O)Cc2c(O)c3c(c(O)c2C(OC2CC(N)C(O)C(C)O2)C1)C(=O)c1ccccc1C3=O (stereo not given) , what call appears in the results of this test?
Output: active

Input: Dear all, I need the recorded test outcome for O=C(Nc1ccccc1)O/N=C1/CCCC/C1=C\c1ccccc1 , thank you.
Output: inactive

Input: Record request — test call for O=P1(N(CCCl)CCCl)Oc2ccc(Cl)cc2C(C(Cl)(Cl)Cl)c2cc(Cl)ccc2O1 (stereo not given)
Output: inactive

Input: Which outcome was assigned to Cc1ccc(S(=O)(=O)NC(=O)C2=C(c3ccccc3)[N-]N(C)c3nc4cccc[n+]4nc32)cc1 in this test?
Output: inactive

Input: Test call for this compound, please: CCOP(=O)(/C=C/n1ccc(=O)[nH]c1=O)OCC
Output: inactive

Input: // return assay outcome for O=C(NNc1ccc([N+](=O)[O-])cc1)C1OC(CO)C(O)C1O (stereo not given)
Output: inactive

Input: Can you look up the reported call for CC1C(/C=C/c2ccoc2)ON2CCCC12 (stereo not given) for me?
Output: inactive

Input: Kindly provide the recorded test outcome for the following compound: Fc1ccc(C(OCCN2CCN(CCCc3ccccc3)CC2)c2ccc(F)cc2)cc1
Output: inactive

Input: What outcome does the record of this test show for CCN(c1n[n+]2c(-c3ccccc3)csc2s1)c1n[n+]2c(-c3ccccc3)csc2s1 ?
Output: inactive

Input: Look up the recorded call for O=C(O)c1ccccc1NCn1c(=S)sc2ccccc21 in this test.
Output: inactive

Input: Short answer needed: outcome of this test for C\C=C/C=C/C=C/C(=O)O ?
Output: inactive

Input: Recorded test call requested for Nc1nc(Cl)cc(NCC2(CO)CC(c3ccccc3)C2)n1 (stereo not given)
Output: inactive

Input: Tell me the assay call for COc1cccc(C(=O)C#Cc2cnc(OC)nc2OC)c1 please.
Output: inactive

Input: How was CC(=O)NC1C(OCc2ccccc2)OC(COC(=O)CCCCCCCCCCNC(=O)CCNc2ccc([N+](=O)[O-])c3[nH]c4ccc(O)cc4c(=O)c23)C(O)C1OC(C)C(=O)N[C@H](C(=O)N[C@H](CCC(=O)O)C(N)=O)C(C)C (stereo not given in full) classified in this test?
Output: inactive

Input: Each compound tested received a call. Report the one for O=C(NCc1ccc(Cl)c(Cl)c1)c1nc2ccccc2nc1NCc1ccc(Cl)c(Cl)c1 .
Output: inactive

Input: What did the test return for COc1ccc2nc3cc(Cl)ccc3c(NCCNCCCNC(=O)c3cc(-c4ccccc4)nc4ccccc34)c2c1 ?
Output: inactive

Input: Hi, do you know how COc1ccc(-c2nc(-c3cnccn3)n(Cc3ccccc3)n2)cc1 came out in this test?
Output: inactive

Input: Which outcome was entered for the compound COc1ccc(Br)c(CN2CCc3ccccc32)c1OS(=O)(=O)c1ccc(C)cc1 in this test?
Output: inactive

Input: Status in this test for Cc1ncc2c(n1)CCC1=C2OS(=O)(=O)CC1N(C)C (stereo not given) ?
Output: inactive

Input: Hi team, can someone confirm the assay call for N#C/C(=C\c1cc(Br)c(O)c(Br)c1)c1ccccn1 ?
Output: inactive

Input: For CC1(c2ccc(Cl)cc2)c2ccccc2C(=O)N1CCCN1C(=O)c2ccccc2C1=O (stereo not given) , what call appears in the results of this test?
Output: inactive

Input: Test call for this compound, please: COc1ccc2c(c1)[n+]([O-])c(-c1cccc(Cl)c1)c(N)[n+]2[O-]
Output: inactive

Input: Per the assay record, what outcome was assigned to Cc1nc(C)c(C(=O)NNC(=O)Cc2ccccc2)cc1C(=O)NNC(=O)Cc1ccccc1 ?
Output: inactive

Input: Per the records of this test, what outcome belongs to C=C1C(=O)O[C@H]2[C@H]3O[C@@H](C[C@@H]12)[C@](C)(O)CCCC(C)=CCC[C@H]3C ?
Output: inactive

Input: Please indicate how the test categorized C[C@]12CCC(=O)C=C1CC[C@@H]1[C@@H]2[C@@H](O)C[C@@]2(C)[C@H]1CC[C@]2(O)C(=O)COC(=O)C1CCCC1 .
Output: inactive

Input: Just curious, what result did COC(=O)[C@]1(C)CCCn2c(=O)n(-c3ccccc3)c(=O)n21 get here?
Output: inactive

Input: For O=c1c(Sc2ncccn2)c(Sc2ncccn2)cnn1CCl , which call appears in the assay record?
Output: inactive

Input: Any idea what this test logged for Cc1nc(OCc2ccccc2)c2ncn(CCO)c2n1 ?
Output: inactive

Input: What call does the record list for O=C1C(=O)N(C23CC4CC(CC(C4)C2)C3)C(=S)N1c1ccccc1 ?
Output: inactive
